# assayProtocol: In vivo toxicity in mouse after oral administration with 10% aqueous acacia gum
# Type: organism-based
measurementLabel: LD50

# compound, result
rows = [
    ("Cl.Cl.NC(=O)c1ccc(NC(=O)CCN2CCN(c3ccccn3)CC2)cc1", "> 6400 µmol/kg"),
    ("O=C([O-])c1cc(=O)c2c(OCC(O)COc3cccc4oc(C(=O)[O-])cc(=O)c34)cccc2o1.[Na+].[Na+] [CROMOLYN SODIUM]", "> 6410 µmol/kg"),
    ("COc1cccc(N2CCN(CCC(=O)Nc3ccccc3[N+](=O)[O-])CC2)n1.Cl", "> 7100 µmol/kg"),
    ("O=c1[nH]c2ccccc2n1CCCN1CCN(C(c2ccccc2)c2ccccc2)CC1 [OXATOMIDE]", "> 7300 µmol/kg"),
]

Cited source for all entries: ChEMBL document CHEMBL1123658
